CC50 at 24 h listing for selected compounds.
Test: in vitro
Settings: rat, gh3-tre-luc cells, AC50 (uM) modified / 1000

Cc1ccc2c(c1)C(=O)c1ccccc1C2=O [2-Methylanthraquinone] : > 90 µM
CC(C)(CO)[N+](=O)[O-] [2-Methyl-2-nitro-1-propanol] : > 90 µM

Consider the additional compound presented here.
The reported value for CC(C)C(=O)OC/C=C/c1ccccc1 in terms of CC50 at 24 h is > 90 µM

====

Assay: in vitro
Conditions: rat, gh3-tre-luc cells, AC50 (uM) modified / 1000
Structures can show the parent of a compound that is named as a salt.
measured quantity: CC50 at 24 h

Example results:
CC(C)(C)c1nnc(NS(=O)(=O)c2ccccc2)s1 [Glybuzole] : > 50 µM
CC1(C)C2CC[C@]3(C)[C@H](C(=O)C=C4[C@@H]5C[C@@](C)(C(=O)O)CC[C@]5(C)CC[C@]43C)[C@@]2(C)CC[C@@H]1O[C@H]1O[C@H](C(=O)O)[C@@H](O)[C@H](O)[C@H]1O[C@@H]1O[C@H](C(=O)O)[C@@H](O)[C@H](O)[C@H]1O (some centres unmarked) [Glycyrrhizic acid, monosodium salt] : > 50 µM
CCOC(=O)NCCC[Si](OCC)(OCC)OCC : > 90 µM
CCCCCCCCCCOC(=O)c1ccccc1C(=O)OCCCCCCCC [Octyl decyl phthalate] : > 90 µM
C=CC(=C)CC/C=C(\C)CC/C=C(/C)C=O [Orange terpenes] : 42.9 µM

The reported value for CCC1(c2ccccc2)C(=O)NC(=O)N(C)C1=O (centres unmarked) [Mephobarbital] in terms of CC50 at 24 h is > 50 µM

The reported value for Cc1coc2c1CCC(C)C2 (centres unmarked) [Menthofuran] in terms of CC50 at 24 h is > 90 µM

The reported value for CCCCCCOC(=O)C(C)CC (centres unmarked) [Hexyl 2-methylbutanoate] in terms of CC50 at 24 h is > 90 µM
